measurement.notes: Area under curve in dog after administration of 20 mg/kg dose through peroral route
Type: ADME, organism-based, Canis lupus familiaris
Set-up: dose 20 mg/kg, route oral
measurement.setup: in vivo, po
measured.quantity: AUC
I'd appreciate it if you wrote the number followed by its unit.

Ask: Tell me the measured AUC of CC(C)COC(=O)N[C@H](CO)C(=O)N[C@@H](C)C(=O)N[C@H]1CCCN(C(=N)N)C1O.O=C(O)C(F)(F)F (stereo partly specified) , please.
Result: 38900 ng·h/mL

###

measurement.notes: Apparent terminal elimination half-life in dog after administration of 20 mg/kg dose through peroral route
Format: ADME, organism-based, Canis lupus familiaris
Parameters: dose 20 mg/kg, route oral
measurement.setup: in vivo, po
measured.quantity: half-life (min)
Answers are plain numbers, in min.

Ask: Tell me the measured half-life of CC(C)COC(=O)N[C@H](CO)C(=O)N[C@@H](C)C(=O)N[C@H]1CCCN(C(=N)N)C1O.O=C(O)C(F)(F)F (stereo partly specified) , please.
Result: 51

###

measurement.notes: Total concentration in rat plasma after administration of 50 mg/kg dose through subcutaneous route
measurement.setup: sc
Answer each item with its documented Tmax.

CC(C)COC(=O)N[C@H](CO)C(=O)N[C@@H](C)C(=O)N[C@H]1CCCN(C(=N)N)C1O.O=C(O)C(F)(F)F (some centres not stated) | 2.33 h

Now take the following compound into account.
Ask: Tell me the measured Tmax of CC(C)COC(=O)N[C@H](COC(=O)O)C(=O)N[C@@H](C)C(=O)N[C@H]1CCCN(C(=N)N)C1O.O=C(O)C(F)(F)F (some centres not stated) , please.
Result: 2.67 h

###

measurement.notes: Maximum concentration in rat plasma after administration of 50 mg/kg dose through subcutaneous route
measurement.setup: sc
Answer each item with its documented Cmax.
One number for each entry, in ng/mL.

CC(C)COC(=O)N[C@H](COC(=O)O)C(=O)N[C@@H](C)C(=O)N[C@H]1CCCN(C(=N)N)C1O.O=C(O)C(F)(F)F (some centres not stated) | 2300

Ask: Tell me the measured Cmax of CC(C)COC(=O)N[C@H](CO)C(=O)N[C@@H](C)C(=O)N[C@H]1CCCN(C(=N)N)C1O.O=C(O)C(F)(F)F (some centres not stated) , please.
Result: 4700

###

measured.on: Urokinase-type plasminogen activator (Homo sapiens, UniProt P00749)
# label = yes (1) if IC50 < 20 nM else no (0)

Check out these entries, answers already filled in.
CC(C)COC(=O)N[C@H](CO)C(=O)N[C@@H](C)C(=O)N[C@H]1CCCN(C(=N)N)C1O.O=C(O)C(F)(F)F (stereo partly drawn) | no (0)
CC(O)[C@@H](NC(=O)OCc1ccccc1)C(=O)N[C@@H](C)C(=O)N[C@H]1CCCN(C(=N)N)C1O (stereo partly drawn) | no (0)
C[C@@H](NC(=O)[C@@H](CO)NC(=O)OCc1ccccc1)C(=O)N[C@H]1CCCN(C(=N)N)C1O (stereo partly drawn) | no (0)
C[C@H](NC(=O)[C@@](C)(CO)NC(=O)OCc1ccccc1)C(=O)N[C@H]1CCCN(C(=N)N)C1O (stereo partly drawn) | no (0)
N=C(N)N1CCC[C@@H](NC(=O)[C@H]2CCCCN2C(=O)[C@@H](CO)NC(=O)OCc2ccccc2)C1O (stereo partly drawn) | no (0)

Ask: Would you kindly verify if IC50 of C[C@H](NC(=O)[C@@H](CO)NS(=O)(=O)CCc1ccccc1)C(=O)N[C@H]1CCCN(C(=N)N)C1O (stereo partly drawn) is strictly less than 20 nM?
Result: yes (1)

Ask: Can you check N=C(N)N1CCC[C@H](NC(=O)C2CCN2C(=O)[C@@H](CO)NC(=O)OCc2ccccc2)C1O (stereo partly drawn) next?
Result: yes (1)

Ask: Can you check C[C@H](NC(=O)[C@@H](CO)NS(=O)(=O)Cc1ccccc1)C(=O)N[C@H]1CCCN(C(=N)N)C1O (stereo partly drawn) next?
Result: yes (1)

###

measurement.notes: Apparent terminal elimination half-life in rat plasma after administration of 50 mg/kg dose through subcutaneous route
measurement.setup: sc
measured.quantity: half-life (h)
Answers are plain numbers, in h.

Ask: Tell me the measured half-life of CC(C)COC(=O)N[C@H](CO)C(=O)N[C@@H](C)C(=O)N[C@H]1CCCN(C(=N)N)C1O.O=C(O)C(F)(F)F (stereo partly specified) , please.
Result: 5

###

The listing below reports pIC50 for compounds tested on Plasminogen (Homo sapiens, UniProt P00747).
Sequence (P00747 97-580 limits assumed): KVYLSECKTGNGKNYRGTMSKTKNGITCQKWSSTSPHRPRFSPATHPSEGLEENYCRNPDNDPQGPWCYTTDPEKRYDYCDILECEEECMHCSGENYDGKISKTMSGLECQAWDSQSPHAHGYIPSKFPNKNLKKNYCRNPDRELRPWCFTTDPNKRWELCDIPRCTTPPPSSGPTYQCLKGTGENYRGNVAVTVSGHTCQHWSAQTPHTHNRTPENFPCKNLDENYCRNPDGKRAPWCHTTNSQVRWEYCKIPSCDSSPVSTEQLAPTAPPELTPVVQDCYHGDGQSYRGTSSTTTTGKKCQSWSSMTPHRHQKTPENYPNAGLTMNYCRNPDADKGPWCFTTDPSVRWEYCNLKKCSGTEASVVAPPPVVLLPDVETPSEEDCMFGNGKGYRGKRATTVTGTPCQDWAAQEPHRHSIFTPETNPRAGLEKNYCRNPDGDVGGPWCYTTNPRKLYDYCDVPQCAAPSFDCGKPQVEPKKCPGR
Sequence (P00747 581-810 limits assumed): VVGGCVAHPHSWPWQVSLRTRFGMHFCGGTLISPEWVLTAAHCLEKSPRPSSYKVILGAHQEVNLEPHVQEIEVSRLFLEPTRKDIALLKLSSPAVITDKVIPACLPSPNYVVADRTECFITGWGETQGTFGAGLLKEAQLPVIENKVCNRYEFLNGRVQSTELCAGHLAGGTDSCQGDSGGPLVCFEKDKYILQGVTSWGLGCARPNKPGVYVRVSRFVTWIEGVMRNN
Numbers only, as −log10 of the molar value.

Solved cases (2 shown):
CC(C)COC(=O)N[C@H](CO)C(=O)N[C@@H](C)C(=O)N[C@H]1CCCN(C(=N)N)C1O.O=C(O)C(F)(F)F (some centres not stated) | 5.84
C[C@H](NC(=O)[C@@H](CO)NC(=O)OCc1ccccc1)C(=O)N[C@H]1CCCN(C(=N)N)C1O (some centres not stated) | 6.04

Batch request: pIC50 per item, same order as input.
1. C[C@H](NC(=O)[C@@H](CO)NS(=O)(=O)c1ccccc1)C(=O)N[C@H]1CCCN(C(=N)N)C1O (some centres not stated)
2. C[C@H](NC(=O)[C@@H](CO)NS(=O)(=O)Cc1ccccc1)C(=O)N[C@H]1CCCN(C(=N)N)C1O (some centres not stated)
3. C[C@H](NC(=O)[C@@H](CO)NS(=O)(=O)CCc1ccccc1)C(=O)N[C@H]1CCCN(C(=N)N)C1O (some centres not stated)

Result:
5.93
6.56
6.44
